Test: Cytotoxicity, MTT assay in CEM-T4 cells
Conditions: human, CEM-T4 cells
assay-endpoint: CC50 at 7 days

Task: Which CC50 at 7 days is listed for C=C(C)[C@@H]1CC[C@]2(C(=O)O)CC[C@]3(C)[C@H](CC[C@@H]4[C@@]5(C)CC[C@H](OC(=O)CC(C)(C)C(=O)O)C(C)(C)[C@@H]5CC[C@]43C)[C@@H]12 [bevirimat, reference compound] ?
Result: 29 µM

---

Entries and their CC50 at 7 days values follow.
Experiment: Cytotoxicity, MTT assay in CEM-T4 cells
Conditions: human

// worked examples, CC50 at 7 days included
[
  {
    "molecule": "C=C(CP(=O)(OCC)OCC)C1CCC2(C(=O)O)CCC3(C)C(CCC4C5(C)CCC(OC(=O)CC(C)(C)C(=O)O)C(C)(C)C5CCC43C)C12 (stereo not drawn) [Compound 14a]",
    "assay-endpoint": "CC50 at 7 days",
    "result": "> 68 µM"
  },
  {
    "molecule": "CCOP(=O)(C=C(C)C1CCC2(C(=O)O)CCC3(C)C(CCC4C5(C)CCC(OC(=O)CC(C)(C)CC(=O)O)C(C)(C)C5CCC43C)C12)OCC (stereo not drawn) [Compound 13b]",
    "assay-endpoint": "CC50 at 7 days",
    "result": "> 68 µM"
  },
  {
    "molecule": "C=C(COP(=O)(OCC)OCC)C1CCC2(C(=O)O)CCC3(C)C(CCC4C5(C)CCC(OC(=O)CCC(C)(C)C(=O)O)C(C)(C)C5CCC43C)C12 (stereo not drawn) [Compound 12c]",
    "assay-endpoint": "CC50 at 7 days",
    "result": "64 µM"
  },
  {
    "molecule": "C=C(C)[C@@H]1CC[C@]2(C(=O)O)CC[C@]3(C)[C@H](CC[C@@H]4[C@@]5(C)CC[C@H](O)C(C)(C)[C@@H]5CC[C@]43C)[C@@H]12 [betulinic acid, 3β-hydroxy-20(29)-lupaene-28-oic acid, reference compound]",
    "assay-endpoint": "CC50 at 7 days",
    "result": "5 µM"
  },
  {
    "molecule": "CCOP(=O)(C=C(C)C1CCC2(C(=O)O)CCC3(C)C(CCC4C5(C)CCC(OC(=O)CC(C)(C)C(=O)O)C(C)(C)C5CCC43C)C12)OCC (stereo not drawn) [Compound 13a]",
    "assay-endpoint": "CC50 at 7 days",
    "result": "> 68 µM"
  }
]

Kindly review the next molecule as well.
Task: Which CC50 at 7 days is listed for C=C(COP(=O)(OCC)OCC)C1CCC2(C(=O)O)CCC3(C)C(CCC4C5(C)CCC(OC(=O)CC(C)(C)CC(=O)O)C(C)(C)C5CCC43C)C12 (stereo not drawn) [Compound 12b] ?
Result: 28 µM
